- ASSAY TARGET: T1, GST-BakΔTM (human, UniProt Q16611 1-186)
- T1 sequence (looked up): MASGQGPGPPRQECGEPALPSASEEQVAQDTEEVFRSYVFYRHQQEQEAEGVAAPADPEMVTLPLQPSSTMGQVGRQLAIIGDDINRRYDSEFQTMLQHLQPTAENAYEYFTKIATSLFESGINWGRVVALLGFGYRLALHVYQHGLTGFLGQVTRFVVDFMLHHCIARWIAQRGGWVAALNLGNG
- EXPERIMENT: SPR
OBSERVATION TYPE: pKd
pKd is a log-scale quantity: -log10 of the concentration expressed in molar.

Input: Bench note: what pKd did Noxa (full-length, S peptide and His6 tagged) (natural protein, human, UniProt Q13794-1 1-54, looked up) MPGKKARKNAQPSPARAPAELEVECATQLRRFGDKLNFRQKLLNLISKLFCSGT show?
Output: 7.62

Cited source: paper PMC3135403
